assay-system: T1, human IL-18BP (Homo sapiens, UniProt O95998)
T1 construct: His
T1 sequence (O95998 31-194): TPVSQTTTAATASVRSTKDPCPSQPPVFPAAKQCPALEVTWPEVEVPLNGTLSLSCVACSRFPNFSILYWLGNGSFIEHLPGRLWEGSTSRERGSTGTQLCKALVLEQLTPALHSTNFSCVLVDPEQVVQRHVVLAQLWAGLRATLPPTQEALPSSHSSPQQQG
measurement-protocol: IL-18BP binding alphaLISA assay (Example 4, used in Example 22B)
condition-info: IL-18BP AlphaLISA
outcome-measure: Kd (nM)
Numeric only. Scale: nM

Consider the following illustrative entries.
molecule	scale-unit	recorded-value
57 (protein) YFGKLKSKLSVIRNLNDQVLFIDQGNRPLFEDMTDSDSRDNAPRTIFIISMYADSQPRGMAVTISVKCEKISTLSCENKIISFKEMNPPDNIKDTKSDIIFFQRSVPGHDNKMQFESSSYEGYFLACEKERDLFKLILKKEDELGDRSIMFTVQNED	nM	50.2
C166: IL-18 polypeptide: V11I, C38A, S55T, C76A, C127A (protein) YFGKLESKLSIIRNLNDQVLFIDQGNRPLFEDMTDSDARDNAPRTIFIISMYKDTQPRGMAVTISVKCEKISTLSAENKIISFKEMNPPDNIKDTKSDIIFFQRSVPGHDNKMQFESSSYEGYFLAAEKERDLFKLILKKEDELGDRSIMFTVQNED	nM	0.02

Now turn to the next molecule.
What value of Kd has been reported for the following molecule? C168: IL-18 polypeptide: V11I, C38A, C76A, S105K, C127A (protein) YFGKLESKLSIIRNLNDQVLFIDQGNRPLFEDMTDSDARDNAPRTIFIISMYKDSQPRGMAVTISVKCEKISTLSAENKIISFKEMNPPDNIKDTKSDIIFFQRKVPGHDNKMQFESSSYEGYFLAAEKERDLFKLILKKEDELGDRSIMFTVQNED
0.05
